# Tested on: Aerobactin synthetase IucA (Klebsiella pneumoniae hvKP1)
# assay.protocol: Biochemical IucA enzyme inhibition primary screen of the Spectrum library (AID 1346200);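 also: 100% = wells without compound and 0% = wells lacking enzyme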
# measurement.conditions: malachite green pyrophosphate, A620, at 8 µM, stronger effect = lower value
readout.kind: activity remaining (%)
One number for each entry, in %.

Would you please look over these solved cases?
Looking up Cc1ccc(/C(=C\CN2CCCC2)c2ccccn2)cc1 , I see its activity remaining listed as 103

Looking up COC(=O)Nc1nc2ccc(S(=O)c3ccccc3)cc2[nH]1 (configuration not stated) , I see its activity remaining listed as 110

Looking up CC(=O)CC(=O)CCC(=O)O , I see its activity remaining listed as 102

Looking up NCCCC[C@H](N[C@@H](CCc1ccccc1)C(=O)O)C(=O)N1CCC[C@H]1C(=O)O , I see its activity remaining listed as 114

Looking up COc1ccc(C2CNC(=O)C2)cc1OC1CCCC1 (configuration not stated) , I see its activity remaining listed as 120

I have 4 compounds here; please give me activity remaining for each one.
1. C[C@@H]1O[C@@H](O[C@H]2[C@H](Oc3cc(O)c4c(=O)cc(-c5ccc(O)cc5)oc4c3)O[C@H](CO)[C@@H](O)[C@@H]2O)[C@H](O)[C@H](O)[C@H]1O
2. COc1c2c(c(CC=C(C)C)c3oc(=O)c(-c4ccc(O)cc4)c(O)c13)OC(C)(C)C=C2
3. CCC1(C2=NCCN2)Cc2ccccc2O1 (configuration not stated)
4. O=c1cc(-c2ccccc2)oc2cccc(O)c12

Output line:
90.6
104
92.2
99.1

I have 6 compounds here; please give me activity remaining for each one.
1. C[C@@H]1CC2C3C[C@H](F)C4=CC(=O)C=C[C@]4(C)[C@@]3(F)[C@@H](O)C[C@]2(C)[C@@]1(O)C(=O)CO (some centres not stated)
2. CCCCCC1C(=O)CCC1CC(=O)O (configuration not stated)
3. Cn1c(=O)c2c(ncn2C)n(C)c1=O
4. CC[C@]12CCCN3CCc4c(n(c5ccccc45)[C@](O)(C(=O)OC)C1)[C@@H]32
5. CC(Cc1ccc(O)c(O)c1)(NN)C(=O)O (configuration not stated)
6. C=C1CCC2C(CC2(C)C)C(=O)CCC1O (configuration not stated)

Output line:
113
93.2
119
115
111
116

I have 2 compounds here; please give me activity remaining for each one.
1. CC(=O)Oc1cc(C)c2c(c1C=O)Oc1c(c(C)c(OC(C)=O)c3c1C(OC(C)=O)OC3=O)OC2=O (configuration not stated)
2. CN1CCc2cc3c(cc2[C@H]1C1OC(=O)c2c1ccc1c2OCO1)OCO3 (some centres not stated)

Output line:
[106, 121]

These data points were gathered from PubChem BioAssay.
